molecular target: human insulin receptor (HIR) (human, UniProt P06213); assay: competition
No end group written: not given here.
PROPERTY MEASURED: Kd (nM)
Give bare numbers, in nM.

Solved cases below.
INSERT INTO results (binder, reported_value) VALUES
  ('GSLDESFYDWFERQLGKKKS [S373]', 120),
  ('NANFYDWFVAELG [S241]', 16000),
  ('LDQEWAQVQCEVYGRGCPSESFYDWFERQL [S533]', 0.067),
  ('S433 (peptide) chain 1: ESFYDWFERQLGGGGK chain 2: WLDQEWAWVQ', 110),
  ('SLEEEWAQIECEVWGRGCSGSLDESFYDWFERQL [S561]', 0.018);

Please report Kd for every entry that follows.
1. S454 (not fully specified; listing feature) chain 1: GSLDESFYDWFERQLGKKKX chain 2: EWLDQEWAWVQCEVYGRGCPSEEKX
2. HHHHHHKSLEEEWAQVECEVYGRGCPSGSLDESFYDWFERQLG [S524]
3. S246 (not fully specified; listing feature) chain 1: ACAWPTYWNCGGGGX chain 2: FHENFYDWFVRQVSKKX

1: 0.38; 2: 0.011; 3: 50

Please report Kd for every entry that follows.
1. SLEQEWAQVECEVYGRGCPSGSLDESFYDWFERQLG [S538]
2. S441 (peptide) chain 1: ESFYDWFERQLGGGGK chain 2: WAWVQCEVYGRGCPS
3. S443 (peptide) chain 1: ESFYDWFERQLGGGGK chain 2: WVQCEVYGRGCPS
4. HDPFYSMMKSLLK [S120]
5. S440 (peptide) chain 1: ESFYDWFERQLGGGGK chain 2: EWAWVQCEVYGRGCPS
6. S231 (listing feature) chain 1: FHENFYDWFVRQVSKKGGGX chain 2: FHENFYDWFVRQVSKKGGGX
7. SLEEEWAQIQAEVYGNPNSESFYDWFERQL [S602]
8. Ac-SIEEEWAQIKCDVWGRGPSESFYDWFERQLG (ends and bridges not checked) [S568]

0.038
120
170
20
99
270
0.031
0.0043

Measured values drawn from patent US20110124556 for this set.
